Assay: Selectivity index, ratio of IC50 for mouse J774 cells to IC50 for epimastigotes of Trypanosoma cruzi Tulahuen 2
Assay type: toxicity, cell-based
Conditions: read-out: Ratio IC50
READOUT_TYPE: selectivity ratio

Please review the entries below; each comes with its answer.
{"columns": ["COMPOUND", "OBSERVED_MEASUREMENT"],
 "data": [
  ["CC(=O)N1CCN(c2ccc(OCC3COC(Cn4ccnc4)(c4ccc(Cl)cc4Cl)O3)cc2)CC1 (stereo not drawn) [KETOCONAZOLE]", "< 5"],
  ["[O-][n+]1onc2ccc(/C=N/N=C/c3cc(Br)ccc3O)cc21", "< 3.4"]
]}

Turning to the following compound.
Please indicate selectivity ratio recorded for [O-][n+]1onc2ccc(/C=N/NC(=S)Nc3ccccc3)cc21 < 5.6

###

The next entries give measured IC50 for Cruzipain (Trypanosoma cruzi).

Solved entries:
{"columns": ["SMILES_RECORD", "OBSERVED_MEASUREMENT"],
 "data": [
  ["[O-][n+]1onc2ccc(/C=N/N=C/c3ccc(O)cc3)cc21", "100 µM"],
  ["C=CCNC(=S)N/N=C/c1ccc2no[n+]([O-])c2c1", "> 100 µM"]
]}

GET IC50 | system: Cruzipain (Trypanosoma cruzi) | item: [O-][n+]1onc2ccc(/C=N/N=C/c3ccccc3O)cc21 68 µM

Using Cruzipain (Trypanosoma cruzi) as the test system, report measured IC50 of NC(=O)N/N=C/c1ccc(OCc2ccc3no[n+]([O-])c3c2)cc1 . > 100 µM

Provide measured IC50 on Cruzipain (Trypanosoma cruzi) for NC(=S)N/N=C/c1ccc(OCc2ccc3no[n+]([O-])c3c2)cc1 please. 43 µM

###

System: Trypanosoma cruzi
Test: Antitrypanosomal activity against epimastigotes of Trypanosoma cruzi Tulahuen 2 at 25 uM relative to control
Type: functional
Details: read-out: GI
Assign class by inhibition of growth at 25 µM: not lower than 50% means 1.0; lower than 50% means 0.0.

{"columns": ["COMPOUND", "CLASS_NAME"],
 "data": [
  ["[O-][n+]1onc2ccc(/C=N/N=C/c3ccc(O)cc3)cc21", 1.0]
]}

Below: the item to evaluate.
Please tell me: is the compound [O-][n+]1onc2ccc(/C=N/NC(=S)Nc3ccccc3)cc21 at or over 50% in terms of inhibition of growth at 25 µM? 1.0

###

Reported selectivity ratio is given for each of the following compounds.
Assay: Selectivity index, ratio of IC50 for mouse J774 cells to IC50 for epimastigotes of Trypanosoma cruzi Tulahuen 2
Type: toxicity, cell-based
Settings: read-out: Ratio IC50

Entry N=C(N)N/N=C/c1ccc(OCc2ccc3no[n+]([O-])c3c2)cc1 needs its selectivity ratio filled in; supply it. < 2

Identify measured selectivity ratio associated with NC(=S)N/N=C/c1ccc(OCc2ccc3no[n+]([O-])c3c2)cc1 26.7

Supply reported selectivity ratio belonging to this compound: O=Cc1ccc(OCc2ccc3no[n+]([O-])c3c2)cc1 6.9

Give the value of selectivity ratio reported for the following: CN(C/C=C/C#CC(C)(C)C)Cc1cccc2ccccc12 [TERBINAFINE] 5.1

Give the value of selectivity ratio reported for the following: N=C(N/N=C/c1ccc(O)cc1)SCc1ccc2no[n+]([O-])c2c1 20.9

###

Molecular target: Trypanothione reductase (Trypanosoma cruzi) (UniProt P28593)
Sequence (P28593 whole entry, looked up): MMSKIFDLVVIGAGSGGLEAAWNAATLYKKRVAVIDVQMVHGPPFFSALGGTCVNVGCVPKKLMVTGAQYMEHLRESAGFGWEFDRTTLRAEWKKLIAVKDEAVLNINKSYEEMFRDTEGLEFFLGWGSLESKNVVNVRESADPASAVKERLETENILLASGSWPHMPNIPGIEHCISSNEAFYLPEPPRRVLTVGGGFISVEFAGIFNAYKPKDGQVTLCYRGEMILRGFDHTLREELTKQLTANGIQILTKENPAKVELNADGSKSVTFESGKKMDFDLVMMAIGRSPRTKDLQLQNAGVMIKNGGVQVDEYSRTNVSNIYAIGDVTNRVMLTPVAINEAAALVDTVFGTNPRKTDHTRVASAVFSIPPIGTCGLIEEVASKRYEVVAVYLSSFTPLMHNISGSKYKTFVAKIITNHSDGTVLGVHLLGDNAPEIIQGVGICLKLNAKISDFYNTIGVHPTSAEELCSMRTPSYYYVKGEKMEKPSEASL
Assay: Inhibition of Trypanosoma cruzi recombinant trypanothione reductase at 100 uM by spectrophotometry
READOUT_TYPE: inhibition
Number first, unit second: that is the form wanted.

For orientation, consider the following solved cases.
{"columns": ["SMILES_RECORD", "READOUT_TYPE", "OBSERVED_MEASUREMENT"],
 "data": [
  ["NC(=S)N/N=C/c1ccc2no[n+]([O-])c2c1", "inhibition", "19%"],
  ["[O-][n+]1onc2ccc(/C=N/NC(=S)Nc3ccccc3)cc21", "inhibition", "0%"],
  ["C=CCNC(=S)N/N=C/c1ccc2no[n+]([O-])c2c1", "inhibition", "9%"],
  ["N=C(N/N=C/c1ccc(O)cc1)SCc1ccc2no[n+]([O-])c2c1", "inhibition", "19%"]
]}

Read the next record carefully.
Given NC(=S)N/N=C/c1ccc(OCc2ccc3no[n+]([O-])c3c2)cc1 , respond with its inhibition. 0%

###

Tested on: Trypanosoma cruzi
Experiment: Antitrypanosomal activity against epimastigotes of Trypanosoma cruzi Tulahuen 2 at 25 uM relative to control
Format: functional
Conditions: read-out: GI
READOUT_TYPE: inhibition of growth at 25 µM (%)
Return type: number; implicit unit %.

Take a look at these entries with their results.
{"columns": ["MOLECULE", "UNIT_TEXT", "inhibition of growth at 25 µM"],
 "data": [
  ["C=CCNC(=S)N/N=C/c1ccc2no[n+]([O-])c2c1", "%", 35],
  ["N=C(N/N=C/c1ccc(O)cc1)SCc1ccc2no[n+]([O-])c2c1", "%", 100]
]}

Answer with reported inhibition of growth at 25 µM of [O-][n+]1onc2ccc(/C=N/N=C/c3ccccc3O)cc21 17

Tell us which inhibition of growth at 25 µM value is on record for O=Cc1ccc(OCc2ccc3no[n+]([O-])c3c2)cc1 98

Complete the entry with inhibition of growth at 25 µM for NC(=S)N/N=C/c1ccc2no[n+]([O-])c2c1 5

Quote inhibition of growth at 25 µM reported for NC(=O)N/N=C/c1ccc(OCc2ccc3no[n+]([O-])c3c2)cc1 please. 25

Specify measured inhibition of growth at 25 µM for CC(=O)N1CCN(c2ccc(OCC3COC(Cn4ccnc4)(c4ccc(Cl)cc4Cl)O3)cc2)CC1 (stereo not drawn) [KETOCONAZOLE] . 100

Tell me its inhibition of growth at 25 µM given O=C(Cn1ccnc1[N+](=O)[O-])NCc1ccccc1 [BENZNIDAZOLE] as the entry. 100

###

Let's look at some molecules and their measured inhibition.
Target: Trypanothione reductase (Trypanosoma cruzi)
Test: Inhibition of Trypanosoma cruzi recombinant trypanothione reductase at 100 uM by spectrophotometry
Param answer (str): number followed by unit.

In one line, give reported inhibition of the entry NC(=O)N/N=C/c1ccc(OCc2ccc3no[n+]([O-])c3c2)cc1 . 0%

Indicate its recorded inhibition; the molecule in question is O=Cc1ccc(OCc2ccc3no[n+]([O-])c3c2)cc1 19%

// fetch inhibition given entry N=C(N)N/N=C/c1ccc(OCc2ccc3no[n+]([O-])c3c2)cc1 50%

###

Tested on: Trypanosoma cruzi
Assay: Antitrypanosomal activity against epimastigotes of Trypanosoma cruzi Tulahuen 2 at 25 uM relative to control
Assay type: functional
Settings: read-out: GI
Listed here: items and their measured inhibition of growth at 25 µM.
Write it as a number; the unit % goes unstated.

{"columns": ["MOLECULE", "ASSAYED_TARGET", "UNIT_TEXT", "inhibition of growth at 25 µM"],
 "data": [
  ["CN(C/C=C/C#CC(C)(C)C)Cc1cccc2ccccc12", "Trypanosoma cruzi", "%", 100],
  ["[O-][n+]1onc2ccc(/C=N/N=C/c3cc(Br)ccc3O)cc21", "Trypanosoma cruzi", "%", 48],
  ["NC(=S)N/N=C/c1ccc(OCc2ccc3no[n+]([O-])c3c2)cc1", "Trypanosoma cruzi", "%", 70],
  ["N=C(N)N/N=C/c1ccc(OCc2ccc3no[n+]([O-])c3c2)cc1", "Trypanosoma cruzi", "%", 40]
]}

Lab note: next molecule to report on.
Name the recorded inhibition of growth at 25 µM of the item CC1CS(=O)(=O)CCN1/N=C/c1ccc([N+](=O)[O-])o1 (stereo not given) in your answer. 100
